Data origin: patent US5019574A

- studyTarget: acetylcholinesterase (Electrophorus electricus, UniProt O42275)
- Construct: purchased Sigma C-2888
- Sequence (O42275 24-633): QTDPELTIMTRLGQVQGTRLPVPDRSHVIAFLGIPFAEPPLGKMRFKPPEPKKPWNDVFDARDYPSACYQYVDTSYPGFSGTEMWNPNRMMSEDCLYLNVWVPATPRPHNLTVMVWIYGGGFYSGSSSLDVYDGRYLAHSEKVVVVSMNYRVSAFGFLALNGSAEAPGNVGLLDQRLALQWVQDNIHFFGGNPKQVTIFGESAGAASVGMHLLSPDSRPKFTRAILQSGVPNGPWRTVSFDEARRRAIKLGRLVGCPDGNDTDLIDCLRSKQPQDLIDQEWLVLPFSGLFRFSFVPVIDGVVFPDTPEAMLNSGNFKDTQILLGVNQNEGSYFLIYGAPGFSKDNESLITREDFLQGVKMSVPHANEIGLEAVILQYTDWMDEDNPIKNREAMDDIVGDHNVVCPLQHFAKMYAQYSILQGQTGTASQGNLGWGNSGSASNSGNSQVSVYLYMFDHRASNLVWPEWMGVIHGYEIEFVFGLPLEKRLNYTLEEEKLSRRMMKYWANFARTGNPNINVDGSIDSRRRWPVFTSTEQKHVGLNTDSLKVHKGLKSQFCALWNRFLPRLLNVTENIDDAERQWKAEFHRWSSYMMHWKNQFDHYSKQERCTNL
- protocolSummary: Inhibition of acetylcholinesterase activity
- Assay type: biochemical
- experimentalContext: activity without drug compound taken as 100, average of three measurements, read-out: Inhibition rate (%)
valueType: inhibition at 1 µM
Provide the measurement as a number trailed by its unit.

Looking up Nc1c2c(nc(C3CCCCC3O)c1N1CCOCC1)CCCC2 (stereo not shown) , I see its inhibition at 1 µM listed as 36.9%

According to the records, this molecule `CCCN(CCC)c1c(C2CCCCC2)nc2c(c1N)CCCC2` displays inhibition at 1 µM of 28.7%

Lookup result for Nc1c2c(nc(C3CCCCC3O)c1N1CCCCC1)CCCC2 (stereo not shown) ; measured inhibition at 1 µM: 38.8%

// `Nc1c2c(nc(C3CCCCC3)c1N1CCOCC1)CCCC2` : inhibition at 1 µM value = 21.8%

Per the records, this molecule ( `Nc1c2c(nc(NC3CCCCC3)c1N1CCOCC1)CCCC2` ) has inhibition at 1 µM equal to 25.9%

Measured inhibition at 1 µM of `Nc1c2c(nc(C3CCCCC3)c1N1CCCCC1)CCCC2` : 22.2%

Record `Nc1c(N2CCCCC2)c(Nc2ccccc2)nc2ccccc12` , field inhibition at 1 µM: 28.3%
